biological target: Human Polymorphonuclear Leukocyte Elastase (Homo sapiens, UniProt P08246); assay: biochemical
Overview of recorded pIC50 for various molecules
Entry type: numeric. Quantity: pIC50, the -log10 of concentration in molar units.

| molecule | reported |
| --- | --- |
| CC(=O)OCC1=C(C(=O)OC(C)(C)C)N2C(=O)C(OC(=O)Cc3ccccc3)C2SC1 (centres unmarked) | 5.17 |

For COC(=O)C1=C(COC(C)=O)CSC2C(OC(=O)Cc3ccccc3)C(=O)N12 (centres unmarked) , what is its reported pIC50?
5.01

----------
Target: Human Polymorphonuclear Leukocyte Elastase (Homo sapiens, UniProt P08246)
Sequence (P08246 30-267): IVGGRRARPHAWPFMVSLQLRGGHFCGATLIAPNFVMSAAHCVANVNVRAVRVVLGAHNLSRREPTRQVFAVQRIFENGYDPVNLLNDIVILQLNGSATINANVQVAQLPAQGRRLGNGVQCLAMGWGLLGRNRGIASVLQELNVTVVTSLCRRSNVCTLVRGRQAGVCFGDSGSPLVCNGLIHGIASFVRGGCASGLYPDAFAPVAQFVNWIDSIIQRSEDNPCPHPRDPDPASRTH
Assay: biochemical
Settings: 50% inhibition of enzyme activity 2 minutes after zero time; crude PMN extract, 0.2 mM Boc-AAPAN, pH 7.5, 410 mμ; read-out: ED50 (the source's name) (converted)
IC50 less than 3 µM is Met; IC50 greater than or equal to 3 µM is Not met.

Reference set (6 entries):
| compound | label |
| --- | --- |
| COC(=O)c1ccc(COC(=O)C2=C(COC(C)=O)CSC3C(OC)C(=O)N23)cc1 (stereo not drawn) [R1=OCH3, B=OCH2 .phi.(p-COOCH3)] | Met |
| COC(=O)C1=C(COC(C)=O)CSC2C(OC=O)C(=O)N12 (stereo not drawn) [R1=OCHO, B=OCH3] | Not met |
| CO[C@H]1C(=O)N2C(C(=O)OC(C)(C)C)=C(COC(C)=O)CS[C@H]12 [R1=OCH3, B=OtBu] | Not met |
| CC(=O)OCC1=C(C(=O)OCc2ccccc2)N2C(=O)C(OC=O)C2SC1 (stereo not drawn) [R1=OCHO, B=OCH2 .phi.] | Not met |
| COC(=O)CCCOC(=O)C1=C(COC(C)=O)CSC2C(OC)C(=O)N12 (stereo not drawn) [R1=OCH3, B=O(CH2)3 COOCH3] | Met |
| COC1C(=O)N2C(C(=O)OCC=C(C)C)=C(COC(C)=O)CSC12 (stereo not drawn) [R1=OCH3, B=OCH2 CHC(CH3)2] | Met |

Answer whether the compound COC(=O)C1=C(COC(C)=O)CSC2C(OC(=O)c3ccccc3)C(=O)N12 (stereo not drawn) [R1=OCO.phi., B=OCH3] has IC50 strictly less than 3 µM
Not met

Answer whether the compound CCOC(=O)COC(=O)C1=C(COC(C)=O)CSC2C(OC)C(=O)N12 (stereo not drawn) [R1=OCH3, B=OCH2 COOC2 H5] has IC50 strictly less than 3 µM
Met

Answer whether the compound COC(=O)C1=C(COC(C)=O)CSC2C(OC)C(=O)N12 (stereo not drawn) [R1=OCH3, B=OCH3] has IC50 strictly less than 3 µM
Not met
